assay: Confirmatory dose response, V. cholerae DH231 delta cqsS, luciferase light activation (AID 686931); conditions: V. cholerae DH231 (delta cqsS) luciferase light production; at 100 µM (top of the series)

Compound	Measure Unit	activation
CN(C)/C=N/c1nnc(-c2ccc3c(c2)OCCO3)o1	%	-0.521
CCCCCCCCCC(=O)[C@H](O)CC (racemic)	%	-0.642
CC(C)c1ccc2cc3c(NC(=O)c4ccco4)nn(C)c3nc2c1	%	2.47
CCn1nnnc1NCc1ccc(C(C)C)cc1	%	-0.577
O=C(Nc1nnc(-c2ccc3c(c2)OCCO3)o1)C1CC1	%	-0.326
O=C(Cc1ccc(-c2ccccc2)cc1)NC1CCC1	%	-0.546
COc1ccc(S(=O)(=O)Nc2nnc(-c3ccc4c(c3)OCCO4)o2)cc1	%	-1.4
COc1cccc(-c2nnc(NC(=O)C3CCCCC3)o2)c1	%	3.05
O=C(Nc1nnc(-c2ccncc2)o1)C1CCC1	%	0.692
Cc1ccc2cc3c(NC(=O)c4cc5ccccc5o4)nn(C)c3nc2c1	%	0.496
Cn1ccc(NC(=O)c2ccco2)n1	%	0.502
O=C(Nc1nnc(-c2ccc3c(c2)OCCO3)o1)C1CCC1	%	0.218
O=C(Nc1nnc(-c2ccc3c(c2)OCCO3)o1)C(F)(F)c1ccccc1	%	-1.19
Cc1ccc2cc3c(NC(=O)Cc4ccco4)nn(C)c3nc2c1	%	13.6
c1ccc(CNc2nnc(-c3ccc4c(c3)OCCO4)o2)cc1	%	-0.54
O=C(Nc1nnc(-c2cccnc2)o1)C1CCC1	%	0.588
O=S(=O)(Nc1nnc(-c2ccc3c(c2)OCCO3)o1)c1ccc(Cl)cc1	%	-1.11
C(=N\c1nnc(-c2ccc3c(c2)OCCO3)o1)/c1ccccc1	%	0.573
Cc1ccc2cc3c(NC(=O)c4ccccn4)nn(C)c3nc2c1	%	1.04
Cn1nc(NC(=O)c2ccco2)c2cc3ccc(C(C)(C)C)cc3nc21	%	-1.04
CC(C)(C)OC(=O)N1CCC(C(=O)Nc2nnc(-c3ccc4c(c3)OCCO4)o2)CC1	%	0.619
CN1CCC(C(=O)Nc2nnc(-c3ccc4c(c3)OCCO4)o2)CC1	%	0.079
Cc1ccc2cc3c(NC(=O)c4ccc(C)o4)nn(C)c3nc2c1	%	0.174
O=C(Nc1nnc(C2CCCC2)o1)C1CCCCC1	%	-0.731
COc1ccc(-c2nnc(NC(C)=O)o2)cc1	%	1.64
O=C(Nc1nnc(-c2ccccc2Cl)o1)C1CCCCC1	%	0.072

----------
activation reference
assay: Confirmatory dose response, V. cholerae DH231 delta cqsS, luciferase light activation (AID 686931); conditions: V. cholerae DH231 (delta cqsS) luciferase light production; at 80 µM (top of the series)
Activity calls are given as the source filed them. The rule behind the calls is not given here.

Smiles Repr	activation
O=C(Nc1nnc(-c2ccc(Cl)cc2)o1)C1CCCCC1	-1.2% (inactive)
O=C(Nc1nnc(-c2ccc3c(c2)CCCC3)o1)C1CCC1	-0.346% (inactive)
CCC(C)(C)C(=O)Nc1nnc(-c2ccc3c(c2)OCCO3)o1	0.359% (inactive)
O=C(Nc1nnc(-c2ccc3c(c2)OCCO3)o1)C1CCCC1	8.16% (inactive)
O=C(Nc1nnc(-c2cccc(Cl)c2)o1)C1CCCCC1	1.82% (inactive)
O=C(CC1CCCCC1)Nc1nnc(-c2cccnc2)o1	-0.959% (inactive)
Cc1ccc2cc3c(NC(=O)c4ccoc4)nn(C)c3nc2c1	10.6% (inactive)

----------
system: V. cholerae DH231 (delta cqsS) luciferase light production; assay: Confirmatory dose response, V. cholerae DH231 delta cqsS, luciferase light activation (AID 686931)
The source made the active and inactive calls. How the calls were made is not given here.
Labels: 1 (yes) (active), 0 (no) (inactive)

Smiles Repr	Class Name
Cc1cc(F)c2cc3c(NC(=O)c4ccco4)nn(C)c3nc2c1	1 (yes)
Cn1nc(NC(=O)c2ccco2)c2cccnc21	1 (yes)
COc1ccccc1-c1nnc(NC(=O)C2CCCCC2)o1	0 (no)
COc1ccc(-c2nnc(NC(=O)C3CCCCC3)o2)cc1	0 (no)
Cc1cc2cc3c(NC(=O)c4ccco4)nn(C)c3nc2cc1C	1 (yes)
COc1ccc2cc3c(NC(=O)c4ccco4)nn(C)c3nc2c1	1 (yes)
Cn1nc(NC(=O)c2ccco2)c2ccccc21	1 (yes)
Cc1cc2nc3c(cc2cc1F)c(NC(=O)c1ccco1)nn3C	1 (yes)
O=C(Nc1nnc(-c2cccnc2)o1)C1CCCCC1	1 (yes)
Cc1ccc2cc3c(NC(=O)c4cccs4)nn(C)c3nc2c1	1 (yes)
CCc1ccc2cc3c(NC(=O)c4ccco4)nn(C)c3nc2c1	1 (yes)
Cc1cc(F)cc2nc3c(cc12)c(NC(=O)c1ccco1)nn3C	1 (yes)
